System: UO-31 renal
Assay: NCI tumour cell line growth inhibition, 48 h
Where a SMILES comes first, the peptide text is derived from it. [ ]: non-standard residue; d: D form. pGlu = O=C1CC[CH](C(=O)O)N1
# GI50 annotations

Exam item: GET /values?readout=GI50&item= CC1(C)C2CCC13C(=O)C1OC3(C2)C2C(=O)c3cc4ccccc4cc3C(=O)C12 (configuration not stated)
Marked response: 19.6 µM

Exam item: GET /values?readout=GI50&item= CCNC(=O)C1CCCN1C(=O)C(CCCN=C(N)N)NC(=O)C(CC(C)C)NC(=O)C(CC(C)C)NC(=O)C(Cc1ccc(O)cc1)NC(=O)C(CO)NC(=O)C(Cc1c[nH]c2ccccc12)NC(=O)C(Cc1cnc[nH]1)NC(=O)C1CCC(=O)N1 (configuration not stated) ([pGlu]HWSYLLRP-NHEt; configuration not given here)
Marked response: > 100 µM

Exam item: GET /values?readout=GI50&item= `Cc1cccc(/C=C/c2c(C(=O)/C=C/c3ccccc3)c(C)nc3ccccc23)c1`
Marked response: 1.26 µM

Exam item: GET /values?readout=GI50&item= C/C=C(\C)C(=O)NC1=CC[C@@]2(C)C(=CCC3C2CC[C@@]2(C)C3CC[C@@H]2C(C)N(C)C)C1=O (some centres not stated)
Marked response: 1.44 µM

Exam item: GET /values?readout=GI50&item= `C=C(CN1C(=O)CN(C)C1=O)c1ccc(C(=O)Nc2ccccc2N)cc1`
Marked response: 11.8 µM

###

Test system: NCI-H460 lung
Assay: NCI tumour cell line growth inhibition, 48 h
assay_metric: TGI

Exam item: GET /values?readout=TGI&item= `O=C(c1ccccc1)n1c(Cc2ccccc2)nc2cc(C34CC5CC(CC(C5)C3)C4)ccc21`
Marked response: > 100 µM

Exam item: GET /values?readout=TGI&item= `Cc1nnn[n-]1.N.N.N.N.N.[Cl-].[Co+3]`
Marked response: > 100 µM

Exam item: GET /values?readout=TGI&item= `N#C[C@@H](c1nc2ccccc2s1)c1ncccc1[N+](=O)[O-]`
Marked response: 14.2 µM

###

# TGI annotations
System: HCT-116 colon
Experiment: NCI tumour cell line growth inhibition, 48 h

O=C(Oc1cccc(F)c1OC(=O)c1cccc(O)c1)c1cccc(O)c1	> 100 µM
CC(Cc1ccccc1)Nc1ncnc2c1ncn2C1OC(CO)CC1O (stereo unspecified)	> 100 µM
CCOC(=O)N1CCN(/[N+]([O-])=N/Oc2ccc([N+](=O)[O-])cc2[N+](=O)[O-])CC1	3.66 µM
C=C(C)[C@@H]1CC[C@]2(C)CC[C@]3(C)[C@H](CC[C@@H]4[C@@]5(C)CC[C@H](O)C(C)(C)[C@@H]5CC[C@]43C)[C@@H]12	> 100 µM

Exam item: GET /values?readout=TGI&item= `CC1(C)CC(C2=NCCO2)CC(C)(C)N1`
Marked response: > 100 µM

Exam item: GET /values?readout=TGI&item= `O=c1cc(-c2ccccc2)[nH]c2ccc(N3CCOCC3)cc12`
Marked response: > 100 µM

###

# TGI annotations
Test system: OVCAR-3 ovarian
Experiment: NCI tumour cell line growth inhibition, 48 h

Exam item: GET /values?readout=TGI&item= `O=C1C(N2CCN(c3ccccn3)CC2)=C(Cl)C(=O)c2ncccc21`
Marked response: 3.95 µM

Sourced from PubChem BioAssay (NCI)
